Listed below: pIC50 values for each entry.
target: C-terminal GST-tagged, recombinant, human IGF-1R, amino acids 954-1367 (Homo sapiens, UniProt P08069)
Construct: human IGF-1R, amino acids 954-1367 expressed by baculovirus in Sf21 cells; GST (C)
Sequence (P08069 954-1367): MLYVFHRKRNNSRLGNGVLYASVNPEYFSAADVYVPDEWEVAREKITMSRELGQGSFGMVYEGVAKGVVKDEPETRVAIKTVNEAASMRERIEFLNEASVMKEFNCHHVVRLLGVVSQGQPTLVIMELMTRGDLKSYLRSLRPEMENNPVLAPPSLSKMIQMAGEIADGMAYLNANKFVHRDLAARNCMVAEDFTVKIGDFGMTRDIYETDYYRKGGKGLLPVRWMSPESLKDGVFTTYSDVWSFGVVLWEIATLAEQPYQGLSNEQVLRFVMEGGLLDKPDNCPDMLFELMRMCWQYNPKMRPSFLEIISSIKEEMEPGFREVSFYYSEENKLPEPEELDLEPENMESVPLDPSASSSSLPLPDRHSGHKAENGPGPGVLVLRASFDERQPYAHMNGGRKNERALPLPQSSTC
method_summary: IGF-1R kinase activity, homogenous time-resolved fluorescence (HTRF) in vitro kinase assay
conditions: IGF-1R kinase HTRF assay, ATP 50 μM, biotinylated peptide substrate 0.5 μM, 60 minutes at room temperature
pIC50: −log10 of the molar value.
measurement_type: pIC50

| compound | measurement_type | result |
| --- | --- | --- |
| COc1cc(-c2nc3ccccn3c2-c2ccnc(Nc3cnn(CCN(C)C)c3)n2)ccc1OCc1ccccc1 [Example 43] | pIC50 | 6.30 to 7.00 |
| CN(C)CCc1cccc(Nc2nccc(-c3c(-c4ccc(OCc5ccccc5)cc4)nn4cc(F)ccc34)n2)c1 [Example 77] | pIC50 | < 6.00 |
| c1ccc(COc2ccc(-c3nc4sccn4c3-c3ccnc(Nc4ccccc4)n3)cc2)cc1 [Example 78] | pIC50 | < 6.00 |
| COc1cc(-c2nc3ccccn3c2-c2ccnc(Nc3cccc(CCN(C)CCO)c3)n2)ccc1OCc1ccccc1 [Example 38] | pIC50 | 7.00 to 7.60 |

Reference for the values: patent US8354422B2
